The reported numbers originate from patent US20210130436A1.

Hi there, I'd appreciate the recorded MFI for every entry that follows.
Target: T1, CD226 (Homo sapiens (Human), UniProt Q15762 19-336)
T1 construct: also called CD226 tfxn
T1 sequence: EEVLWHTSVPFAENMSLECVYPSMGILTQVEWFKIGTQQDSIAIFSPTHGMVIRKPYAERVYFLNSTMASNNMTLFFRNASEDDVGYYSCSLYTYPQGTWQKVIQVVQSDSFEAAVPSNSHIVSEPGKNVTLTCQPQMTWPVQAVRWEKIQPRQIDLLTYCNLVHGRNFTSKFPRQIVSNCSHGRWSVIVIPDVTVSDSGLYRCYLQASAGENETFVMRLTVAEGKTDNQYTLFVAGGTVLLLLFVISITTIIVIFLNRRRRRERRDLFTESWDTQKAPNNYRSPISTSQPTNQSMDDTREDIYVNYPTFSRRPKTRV
Assay: flow cytometry on CD226-transfected Expi293 cells
Numeric answer only, unit MFI assumed.

Qu. Endpoint output: MFI of variant CD155 IgV-Fc P18L/L79V/F91S (Fc fusion, not shown: a dimerising Fc or GST) WPPPGTGDVVVQAPTQVLGFLGDSVTLPCYLQVPNMEVTHVSQLTWARHGESGSMAVFHQTQGPSYSESKRLEFVAARVGAELRNASLRMSGLRVEDEGNYTCLFVTFPQGSRSVDIWLRVL . Value?
Ans. 5140

Qu. Endpoint output: MFI of variant CD155 IgV-Fc P18T/F91S/R94H (Fc fusion, not shown: a dimerising Fc or GST) WPPPGTGDVVVQAPTQVTGFLGDSVTLPCYLQVPNMEVTHVSQLTWARHGESGSMAVFHQTQGPSYSESKRLEFVAARLGAELRNASLRMSGLHVEDEGNYTCLFVTFPQGSRSVDIWLRVL . Value?
Ans. 3590

Qu. Endpoint output: MFI of variant CD155 IgV-Fc A81V/L83P (Fc fusion, not shown: a dimerising Fc or GST) WPPPGTGDVVVQAPTQVPGFLGDSVTLPCYLQVPNMEVTHVSQLTWARHGESGSMAVFHQTQGPSYSESKRLEFVAARLGVEPRNASLRMFGLRVEDEGNYTCLFVTFPQGSRSVDIWLRVL . Value?
Ans. 4170

Qu. Endpoint output: MFI of wild-type CD155 IgV-Fc (Fc fusion, not shown: a dimerising Fc or GST) WPPPGTGDVVVQAPTQVPGFLGDSVTLPCYLQVPNMEVTHVSQLTWARHGESGSMAVFHQTQGPSYSESKRLEFVAARLGAELRNASLRMFGLRVEDEGNYTCLFVTFPQGSRSVDIWLRVL . Value?
Ans. 3720
